- assayed.system: SERT (Homo sapiens)
- Sequence (P31645 whole entry, species assumed): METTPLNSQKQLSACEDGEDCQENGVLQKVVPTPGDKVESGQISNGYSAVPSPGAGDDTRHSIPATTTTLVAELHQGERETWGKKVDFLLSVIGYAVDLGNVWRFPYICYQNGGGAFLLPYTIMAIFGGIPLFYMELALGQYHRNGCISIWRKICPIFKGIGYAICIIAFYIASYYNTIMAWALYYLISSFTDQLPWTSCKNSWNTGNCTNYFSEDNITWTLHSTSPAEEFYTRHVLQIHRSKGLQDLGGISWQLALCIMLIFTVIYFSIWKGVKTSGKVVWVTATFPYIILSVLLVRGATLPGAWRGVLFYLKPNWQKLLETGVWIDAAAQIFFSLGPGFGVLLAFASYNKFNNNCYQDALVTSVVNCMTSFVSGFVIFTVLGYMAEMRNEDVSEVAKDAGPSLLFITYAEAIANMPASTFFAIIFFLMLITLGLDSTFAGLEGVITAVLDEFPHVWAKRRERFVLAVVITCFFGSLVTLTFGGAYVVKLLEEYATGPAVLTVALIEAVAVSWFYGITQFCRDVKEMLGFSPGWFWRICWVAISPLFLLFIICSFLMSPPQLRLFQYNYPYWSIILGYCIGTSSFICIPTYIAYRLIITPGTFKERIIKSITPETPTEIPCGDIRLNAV
- test.protocol: fluorescence-based serotonin uptake assay (Tsuruda et al. 2010)
- Assay type: cell-based
- condition.details: serotonin reuptake inhibition, fluorescence-based assay (data indicated by an asterisk)
Marks after values point to notes of the source that are not given here.
endpoint.name: SERT pIC50

Check out these entries, answers already filled in.
>>> endpoint_result("Clc1ccccc1O[C@@H](COCc1ccccc1)[C@H]1CCNC1 [Example 10-1]")
"≧7.0*"
>>> endpoint_result("CSC[C@H](Oc1ccc(Cl)cc1Cl)[C@H]1CCNC1.O=C(O)C(F)(F)F [Example 15-11]")
"≧8.0*"
>>> endpoint_result("CSC[C@H](Oc1cccc(Cl)c1C)[C@H]1CCNC1.O=C(O)C(F)(F)F [Example 15-5]")
"≧8.0*"
>>> endpoint_result("CCSC[C@H](Oc1ccc(Cl)cc1C(F)(F)F)[C@H]1CCNC1.O=C(O)C(F)(F)F [Example 17-13]")
"≧8.0*"
>>> endpoint_result("CSC[C@H](Oc1cccc(F)c1Cl)[C@H]1CCNC1.O=C(O)C(F)(F)F [Example 15-3]")
"≧8.0*"
>>> endpoint_result("CCSC[C@@H](Oc1cccc(Cl)c1C(F)(F)F)[C@H]1CCNC1.O=C(O)C(F)(F)F [Example 17-14]")
"≧8.0*"
>>> endpoint_result("CCSC[C@H](Oc1ccc(C(F)(F)F)cc1)[C@H]1CCNC1.O=C(O)C(F)(F)F [Example 17-11]")
"≧8.0*"

Consider the record given below.
# SERT pIC50 (compound: CSC[C@@H](Oc1ccc(F)c(F)c1F)[C@H]1CCNC1.O=C(O)C(F)(F)F [Example 15-14] ) is ≧7.0*
